Molecular target: Sodium-dependent dopamine transporter (Rattus norvegicus)
Sequence (P23977 whole entry): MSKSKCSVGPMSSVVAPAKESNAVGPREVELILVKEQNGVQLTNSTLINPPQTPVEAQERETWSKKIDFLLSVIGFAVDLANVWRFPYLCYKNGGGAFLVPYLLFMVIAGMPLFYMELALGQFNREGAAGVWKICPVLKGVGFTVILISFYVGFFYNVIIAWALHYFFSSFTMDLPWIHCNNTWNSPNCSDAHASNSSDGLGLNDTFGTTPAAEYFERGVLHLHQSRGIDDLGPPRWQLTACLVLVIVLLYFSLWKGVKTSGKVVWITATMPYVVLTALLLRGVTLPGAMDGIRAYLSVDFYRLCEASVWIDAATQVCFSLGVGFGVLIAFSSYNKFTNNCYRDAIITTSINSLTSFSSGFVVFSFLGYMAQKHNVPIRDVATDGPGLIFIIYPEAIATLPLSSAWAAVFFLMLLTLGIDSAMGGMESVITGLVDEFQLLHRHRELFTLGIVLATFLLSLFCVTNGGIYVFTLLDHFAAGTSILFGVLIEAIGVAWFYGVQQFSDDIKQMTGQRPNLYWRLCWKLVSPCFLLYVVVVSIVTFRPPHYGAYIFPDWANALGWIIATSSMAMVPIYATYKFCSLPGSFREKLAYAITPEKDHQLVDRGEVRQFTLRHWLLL
Test: Affinity against cocaine binding site of dopamine transporter in rat striatum using [3H]2b as radioligand.
Kindly apply the following: yes if IC50 is less than 2 nM, no in every other case.

Example entries and their recorded answers appear below.
- compound: "CCC(=O)Nc1ccc([C@H]2C[C@H]3CCC([C@H]2C(=O)OC)N3C)cc1"
  system-under-test: "Sodium-dependent dopamine transporter (Rattus norvegicus)"
  group: "no"
- compound: "COC(=O)[C@@H]1C2CC[C@H](C[C@@H]1c1ccc(N=[N+]=[N-])cc1)N2C"
  system-under-test: "Sodium-dependent dopamine transporter (Rattus norvegicus)"
  group: "no"

Task: Identify whether the compound COC(=O)[C@@H]1C2CC[C@H](C[C@@H]1c1ccc(NC(C)=O)cc1)N2C records IC50 below 2 nM.
Result: no

Task: Identify whether the compound COC(=O)C1C2CC[C@H](C[C@@H]1c1ccc(Cl)cc1)N2C (some centres not stated) records IC50 below 2 nM.
Result: yes

Task: Identify whether the compound CCOC(=O)Nc1ccc([C@H]2C[C@H]3CCC([C@H]2C(=O)OC)N3C)cc1 records IC50 below 2 nM.
Result: no

Task: Identify whether the compound COC(=O)[C@@H]1C2CC[C@H](C[C@@H]1c1ccc(N)cc1)N2C records IC50 below 2 nM.
Result: no

Task: Identify whether the compound COC(=O)[C@@H]1C2CC[C@H](C[C@@H]1c1ccc(C(F)(F)F)cc1)N2C records IC50 below 2 nM.
Result: no

Task: Identify whether the compound COC(=O)[C@@H]1C2CC[C@H](C[C@@H]1c1cccs1)N2C records IC50 below 2 nM.
Result: no

Task: Identify whether the compound COC(=O)[C@@H]1C2CC[C@H](C[C@@H]1c1ccccc1)N2C records IC50 below 2 nM.
Result: no

Task: Identify whether the compound COC(=O)C1C2CC[C@H](C[C@H]1c1ccc(C)cc1)N2C (some centres not stated) records IC50 below 2 nM.
Result: yes

Task: Identify whether the compound COC(=O)C1C2CC[C@H](C[C@H]1c1ccc(Br)cc1)N2C (some centres not stated) records IC50 below 2 nM.
Result: yes

Task: Identify whether the compound COC(=O)C1C2CC[C@H](C[C@@H]1c1ccc(I)cc1)N2C (some centres not stated) records IC50 below 2 nM.
Result: yes
